Molecular target: T1, rat NTR1 (rat, UniProt P20789 1-424)
T1 construct: whole, on cells; PI turnover on intact cells; also called rNTR; rNTR1
T1 sequence (P20789 whole entry): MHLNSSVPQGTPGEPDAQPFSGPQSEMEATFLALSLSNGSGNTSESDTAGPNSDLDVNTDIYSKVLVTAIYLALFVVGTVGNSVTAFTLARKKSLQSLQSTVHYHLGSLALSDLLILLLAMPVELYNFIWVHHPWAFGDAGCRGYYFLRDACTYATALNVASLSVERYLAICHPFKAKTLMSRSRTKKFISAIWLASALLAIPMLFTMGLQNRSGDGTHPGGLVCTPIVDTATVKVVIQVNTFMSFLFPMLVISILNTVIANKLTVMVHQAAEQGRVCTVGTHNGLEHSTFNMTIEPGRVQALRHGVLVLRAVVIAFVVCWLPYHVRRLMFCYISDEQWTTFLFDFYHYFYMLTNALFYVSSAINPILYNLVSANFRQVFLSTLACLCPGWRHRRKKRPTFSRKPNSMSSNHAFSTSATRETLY
Experiment: radiolabeled competitive binding assay, CHO cells expressing rat NTR (repeats Table II)
Square brackets hold non-standard residues; d marks the D form. Ends that are not written are not given here. Ala(indol-4-yl) = N[C@@H](Cc1cccc2[nH]ccc12)C(=O)O
assayEndpoint: pKd
Please note pKd is a logarithmic value: minus log10 of concentration in mol/L. Answer with that number alone.

Input [dK]RP[Ala(indol-4-yl)]IL (NT(8-13) analog) [NT67L] . Output pKd: 9.68
